target: Adenosine A2 receptor (Homo sapiens, UniProt P29275+P29274); test: Inhibition of 5'-(N-ethylcarbamoyl)adenosine-elicited stimulation of adenylate cyclase in human platelet membranes; type: cell membranes
QUANTITY_KIND: Kb (µM)
# value in µM; strip the unit string

Entry `CCCn1c(=O)c2nc(-c3ccc(OCC(=O)O)cc3O)[nH]c2n(CCC)c1=O` — recorded Kb = 2

Entry `CCCn1c(=O)c2nc(-c3ccc(C(=O)NCC(=O)OC)cc3)[nH]c2n(CCC)c1=O` — recorded Kb = 0.24

Entry `CCCn1c(=O)c2[nH]c(-c3ccc(OC)cc3O)nc2n(CCC)c1=O` — recorded Kb = 0.18

Entry `CCCn1c(=O)c2nc(-c3ccc(OCC(=O)NCCN(C)C)cc3O)[nH]c2n(CCC)c1=O` — recorded Kb = 0.077

Entry `CCCn1c(=O)c2nc(-c3ccc(C(N)=O)cc3)[nH]c2n(CCC)c1=O` — recorded Kb = 0.054

Entry `CCCn1c(=O)c2nc(-c3ccc(OCC(N)=O)cc3O)[nH]c2n(CCC)c1=O` — recorded Kb = 1.2
